# TEST PROTOCOL: chemical genetic growth profiling, strain panel (AID 1159580);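 also: tested at 20 µM; growth read once vehicle control cultures reached saturation at 30 °C; 1 = growth at the plate median or of vehicle wells; lower values mean less growth of the strain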
# MEASUREMENT SETUP: S. cerevisiae deletion strains, growth OD, locus YPL051W, strain arl3
The campaign covered roughly 5,500 compounds. About 2,000 (36%) were called active. Roughly 18% stayed inconclusive and do not appear here. Rule as the data show it: active = normalized growth mostly below about 0.91 (no sharp cut-off); inconclusive = no clear call, values can overlap the other calls; inactive = mostly above about 0.92. This is one part of the list.
# output must be one of T (active), F (inactive)

For orientation, consider the following solved cases.
(Q) Answer briefly: the call reported for COc1ccc2c(c1)OC/C(=C\c1ccc(OC)c(O)c1)C2=O in this assay.
(A) T

(Q) What did this assay record as the result for C[C@]12CCC(=O)C=C1C=CC1C2CC[C@@]2(C)C1CC[C@@]2(O)CCC(=O)O (some centres undefined) ?
(A) F

(Q) Query: recorded result category for CC(=O)S[C@@H]1CC2=CC(=O)CC[C@]2(C)[C@H]2CC[C@@]3(C)[C@@H](CC[C@@]34CCC(=O)O4)C12 (some centres undefined) in this test
(A) F

Proceed to the following item.
(Q) Short answer needed: outcome of this test for C[C@]12CCC(=O)C=C1C=CC1C2CC[C@@]2(C)C1CC[C@@]21CCC(=O)O1 (some centres undefined) ?
(A) F

====

# TEST PROTOCOL: chemical genetic growth profiling, strain panel (AID 1159580)
# MEASUREMENT SETUP: S. cerevisiae deletion strains, growth OD, locus YML032C, strain rad52, stronger effect = lower value
In all, about 5,500 compounds went through this assay and about 2,000 (36%) were called active. Not shown: some 18% with an inconclusive outcome. Some of the results follow.
For each record, write down the corresponding normalized growth.

Solved entries:
(Q) Which normalized growth value belongs to COc1ccc(-c2coc3cc(O)ccc3c2=O)c(OC)c1O ?
(A) 0.983 (inactive)

(Q) Item COc1ccc(-c2coc3cc(O)ccc3c2=O)cc1 has what recorded normalized growth?
(A) 0.933 (inactive)

(Q) So what does the record say about normalized growth for C#CCN(C)Cc1ccccc1 ?
(A) 1.02 (inactive)

(Q) Which normalized growth value belongs to O=c1c(-c2ccc(O)cc2)coc2cc(O)ccc12 ?
(A) 0.977 (inactive)

(Q) Given the compound COc1ccc(-c2coc3cc(OC)ccc3c2=O)cc1 , what is its reported normalized growth?
(A) 0.942 (inactive)

I need normalized growth for every entry listed below, if you could help.
1. CC(=O)S[C@@H]1CC2=CC(=O)CC[C@]2(C)[C@H]2CC[C@@]3(C)[C@@H](CC[C@@]34CCC(=O)O4)C12 (stereo not given in full)
2. COc1ccccc1-c1coc2cc(O)ccc2c1=O
3. CN1CC(CO)=C[C@@H]2c3cccc4[nH]cc(c34)C[C@H]21
4. CCC(C)C(=O)OC1CC2(C)C(c3ccoc3)OC(=O)CC23OC2(C)OC34C(OC(=O)C(C)C)C3(O)C(OC(=O)C5(C)OC5C)C5(C)CC3(O)C(C)(C5C(=O)OC)C14O2 (stereo not given)

(A)
1: 1.02 (inactive); 2: 1.02 (inactive); 3: 1.01 (inactive); 4: 1.03 (inactive)

(Q) Given the compound C[C@]12CCC(=O)C=C1C=CC1C2CC[C@@]2(C)C1CC[C@@]21CCC(=O)O1 (stereo not given in full) , what is its reported normalized growth?
(A) 0.971 (inactive)

====

# TEST PROTOCOL: chemical genetic growth profiling, strain panel (AID 1159580)
# MEASUREMENT SETUP: S. cerevisiae deletion strains, growth OD, locus YLR268W, strain sec22, stronger effect = lower value
Hit rate of the full screen: of about 5,500 compounds, about 2,000 (36%) were called active. Roughly 18% stayed inconclusive and do not appear here. The list shows a part of the results.
I'd be grateful if you could share measured normalized growth for these entries.
Numbers only.

Example entries and their recorded answers appear below.
(Q) normalized growth lookup needed for CC(=O)S[C@@H]1CC2=CC(=O)CC[C@]2(C)[C@H]2CC[C@@]3(C)[C@@H](CC[C@@]34CCC(=O)O4)C12 (stereo not given in full) , thanks.
(A) 1.03

(Q) Field request: normalized growth | item: C[C@]12CCC(=O)C=C1C=CC1C2CC[C@@]2(C)C1CC[C@@]21CCC(=O)O1 (stereo not given in full)
(A) 0.914

(Q) I have this molecule here, C[C@]12CCC(=O)C=C1C=CC1C2CC[C@@]2(C)C1CC[C@@]2(O)CCC(=O)O (stereo not given in full) , and I need its recorded normalized growth.
(A) 0.929

(Q) I have this molecule here, O=C1C(Cl)=C(Cl)C(=O)C(Cl)=C1Cl , and I need its recorded normalized growth.
(A) 0.256

# context switch: different molecule, same normalized growth
(Q) What measured normalized growth goes with C=C[C@@](C)(O)CCC1C(=C)CCC2[C@@](C)(CO)CCC[C@]12C (stereo not given in full) ?
(A) 0.959

====

# TEST PROTOCOL: chemical genetic growth profiling, strain panel (AID 1159580);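 also: tested at 20 µM; growth read once vehicle control cultures reached saturation at 30 °C; 1 = growth at the plate median or of vehicle wells; lower values mean less growth of the strain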
# MEASUREMENT SETUP: S. cerevisiae deletion strains, growth OD, locus YOR144C, strain elg1, stronger effect = lower value
The whole screen tested about 5,500 compounds, of which about 2,000 (36%) were called active. Inconclusive results (about 18%) are left out. This is one part of the list.
QUANTITY KIND: normalized growth
Numbers only.

Field: example entries. Status: answers known.
(Q) What does the record list as normalized growth for Clc1ccc(C(c2ccc(Cl)cc2)C(Cl)(Cl)Cl)cc1 ?
(A) 1

(Q) So what does the record say about normalized growth for CCCCCCCCCCC[C@@H](C[C@H]1OC(=O)[C@H]1CCCCCC)OC(=O)[C@@H](CC(C)C)NC=O ?
(A) 1.02

(Q) Please look up its normalized growth: Cc1[nH]c2ccccc2c1CN(C)C
(A) 0.999

(Q) Given the entry O=c1cccc2ccc(O)c(O)c2c1O , report its measured normalized growth.
(A) 0.788

(Q) Form field: reported normalized growth of COC(=O)c1cc(=O)c(O)c2c(O)c(O)ccc2c1
(A) 0.822

Next compound, please.
(Q) I have this compound here, COC(=O)/C=C/C(C)=C/C=C/C(C)=C/C=C/C=C(C)/C=C/C=C(C)/C=C/C(=O)O , and I need its recorded normalized growth.
(A) 1

====

Could you please report measured normalized growth for the items listed next?
# TEST PROTOCOL: chemical genetic growth profiling, strain panel (AID 1159580);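 also: tested at 20 µM; growth read once vehicle control cultures reached saturation at 30 °C; 1 = growth at the plate median or of vehicle wells; lower values mean less growth of the strain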
# MEASUREMENT SETUP: S. cerevisiae deletion strains, growth OD, locus YFR010W, strain ubp6, stronger effect = lower value
Out of some 5,500 compounds screened, about 2,000 (36%) were called active. Roughly 18% stayed inconclusive and do not appear here. This is one part of the list.
Numbers only.

Solved entries (count: 2):
(Q) Dear colleague, I am looking for the recorded normalized growth of the following compound: CC[C@@H](C(=O)C(C)[C@@H](O)[C@H](C)CCc1ccc(C)c(O)c1C(=O)O)C1OC(CC)(C2CC[C@](O)(CC)[C@H](C)O2)C[C@@H]1C (some centres undefined)
(A) 1.06

(Q) Need normalized growth, item COc1cc([C@@H]2c3cc4c(cc3[C@@H](O)C3COC(=O)C32)OCO4)cc(OC)c1O (some centres undefined)
(A) 0.973

Quick batch: normalized growth for everything below.
1. CN(C)CCCC1(c2ccc(F)cc2)OCc2cc(C#N)ccc21 (centres undefined)
2. Cc1[nH]c2ccccc2c1CN(C)C
3. CCCCCCCCC(=O)NCc1ccc(O)c(OC)c1

(A)
0.976
1.01
1.02

====

# TEST PROTOCOL: chemical genetic growth profiling, strain panel (AID 1159580);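 also: tested at 20 µM; growth read once vehicle control cultures reached saturation at 30 °C; 1 = growth at the plate median or of vehicle wells; lower values mean less growth of the strain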
# MEASUREMENT SETUP: S. cerevisiae deletion strains, growth OD, locus YLR262C, strain YPT6, stronger effect = lower value
About 2,000 (36%) of roughly 5,500 compounds were called active. Another 18% or so got no clear call; they are omitted. Some of the results follow.
QUANTITY KIND: normalized growth
Numbers only.

Example entries begin here.
(Q) Param item = COC(=O)/C=C/C(C)=C/C=C/C(C)=C/C=C/C=C(C)/C=C/C=C(C)/C=C/C(=O)O ; retrieve measured normalized growth.
(A) 1.04

(Q) Report normalized growth for Oc1ccc2c(c1)O[C@H](c1ccc(O)c(O)c1)[C@@H](O)C2 please.
(A) 1.25

(Q) So what's the measured normalized growth for this one? CC1(C)S[C@@H]2[C@H](NC(=O)[C@H](N)c3ccccc3)C(=O)N2[C@H]1C(=O)O
(A) 1.08

(Q) Recorded normalized growth of N[C@@H](Cc1ccc(N(CCCl)CCCl)cc1)C(=O)O , please.
(A) 0.898

(Q) Please report the recorded normalized growth for CN1CC(CO)=C[C@@H]2c3cccc4[nH]cc(c34)C[C@H]21 .
(A) 0.957

Provide each entry's normalized growth from the list below.
1. Oc1cc(O)c2c(c1)OC(c1cc(O)c(O)c(O)c1)C(O)C2c1c(O)cc(O)c2c1OC(c1cc(O)c(O)c(O)c1)C(O)C2c1c(O)cc(O)c2c1OC(c1cc(O)c(O)c(O)c1)C(O)C2 (stereo not given)
2. Cc1onc(-c2c(Cl)cccc2Cl)c1-c1nc(-c2ccc3c(c2)OCCO3)cs1
3. O=C(O)CCCc1ccc(N(CCCl)CCCl)cc1
4. NC(=O)c1ccc[n+]([C@@H]2O[C@H](COP(=O)([O-])OP(=O)(O)OC[C@H]3O[C@@H](n4cnc5c(N)ncnc54)[C@H](OP(=O)(O)O)[C@@H]3O)[C@@H](O)[C@H]2O)c1
5. COc1cc2nc(N(C)CCCNC(=O)C3CCCO3)nc(N)c2cc1OC (stereo not given)

(A)
1. 0.935
2. 1
3. 0.915
4. 1.08
5. 1.07

Data credit: PubChem BioAssay AID1159580
